- measurement.protocol: Kinetic aqueous solubility in pH 7.4 PBS
- Format: physicochemical
- study.conditions: PBS, pH 7.4, aqueous buffer, kinetic from dmso stock; Table 2; read-out: Kinetic Aqueous Solubility S

record.smiles: CCSc1ncc(CN2CCN(c3nc4ccc(Cl)cc4o3)CC2)cn1
unit.string: µM
solubility kinetic: 8.3

record.smiles: CCSc1ncc(CN2CCN(c3nc4cc(F)c(F)cc4o3)CC2)cn1
unit.string: µM
solubility kinetic: 0.952

record.smiles: CCSc1ncc(CN2CCN(c3nc4ccccc4o3)CC2)cn1
unit.string: µM
solubility kinetic: 76.4

record.smiles: CCSc1ncc(CN2CCN(c3nc4cc(C(F)(F)F)ccc4o3)CC2)cn1
unit.string: µM
solubility kinetic: 38.6

record.smiles: CCSc1ncc(CN2CCN(c3nc4ccc(C)cc4o3)CC2)cn1
unit.string: µM
solubility kinetic: 13.7
